# IC50 (nM) Ca2+ assay (method 2) values compiled below
- Target Or Test System: human CXCR4 (human, UniProt P61073 1-352)
- Sequence (P61073 whole entry): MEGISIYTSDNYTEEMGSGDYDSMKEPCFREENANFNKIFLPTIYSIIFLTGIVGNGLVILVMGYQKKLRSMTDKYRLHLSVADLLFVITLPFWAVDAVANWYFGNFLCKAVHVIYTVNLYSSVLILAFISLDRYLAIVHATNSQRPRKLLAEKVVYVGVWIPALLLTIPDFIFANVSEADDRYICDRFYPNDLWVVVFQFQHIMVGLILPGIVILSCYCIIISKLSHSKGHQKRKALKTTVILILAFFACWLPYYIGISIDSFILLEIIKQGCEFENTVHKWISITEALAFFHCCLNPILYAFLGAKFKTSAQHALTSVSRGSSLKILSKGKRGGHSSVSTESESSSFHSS
- Experiment Description: cell-based or functional assay
Bridges are numbered along the chain shown (N, C = ends). [ ]: non-standard residue; d: D form. 2Nal = N[C@@H](Cc1ccc2ccccc2c1)C(=O)O; Cit = NC(=O)NCCC[C@H](N)C(=O)O; Dab = NCC[C@H](N)C(=O)O
Only the number, expressed in nM, is required.

Look over these answered cases.
Binder	IC50 (nM) Ca2+ assay (method 2)
cyclo(SR[Cit]CRG[dP]RR[2Nal]CYQK[dP]P) (disulfide 4-11; SMILES N=C(N)NCCC[C@@H]1NC(=O)[C@@H]2CSSC[C@H](NC(=O)[C@H](Cc3ccc4ccccc4c3)NC(=O)[C@H](CCCNC(=N)N)NC(=O)[C@H](CCCNC(=N)N)NC(=O)[C@H]3CCCN3C(=O)CNC1=O)C(=O)N[C@@H](Cc1ccc(O)cc1)C(=O)N[C@@H](CCC(N)=O)C(=O)N[C@@H](CCCCN)C(=O)N1CCC[C@@H]1C(=O)N1CCC[C@H]1C(=O)N[C@@H](CO)C(=O)N[C@@H](CCCNC(=N)N)C(=O)N[C@@H](CCCNC(N)=O)C(=O)N2) [Example 89]	0.5
cyclo(YR[Cit]C[Dab]G[dP]RRWCYQK[dP]P) (disulfide 4-11; SMILES N=C(N)NCCC[C@@H]1NC(=O)[C@H](CCCNC(=N)N)NC(=O)[C@H]2CCCN2C(=O)CNC(=O)[C@H](CCN)NC(=O)[C@@H]2CSSC[C@H](NC(=O)[C@H](Cc3c[nH]c4ccccc34)NC1=O)C(=O)N[C@@H](Cc1ccc(O)cc1)C(=O)N[C@@H](CCC(N)=O)C(=O)N[C@@H](CCCCN)C(=O)N1CCC[C@@H]1C(=O)N1CCC[C@H]1C(=O)N[C@@H](Cc1ccc(O)cc1)C(=O)N[C@@H](CCCNC(=N)N)C(=O)N[C@@H](CCCNC(N)=O)C(=O)N2) [Example 111]	1.6
cyclo(YR[Cit]ERG[dP]RRW[Dab]Y[Cit]K[dP]P) (lactam 4-11; SMILES N=C(N)NCCC[C@@H]1NC(=O)[C@@H]2CCC(=O)NCC[C@H](NC(=O)[C@H](Cc3c[nH]c4ccccc34)NC(=O)[C@H](CCCNC(=N)N)NC(=O)[C@H](CCCNC(=N)N)NC(=O)[C@H]3CCCN3C(=O)CNC1=O)C(=O)N[C@@H](Cc1ccc(O)cc1)C(=O)N[C@@H](CCCNC(N)=O)C(=O)N[C@@H](CCCCN)C(=O)N1CCC[C@@H]1C(=O)N1CCC[C@H]1C(=O)N[C@@H](Cc1ccc(O)cc1)C(=O)N[C@@H](CCCNC(=N)N)C(=O)N[C@@H](CCCNC(N)=O)C(=O)N2) [Example 153]	21.9

# next binder below
Could you tell me which IC50 (nM) Ca2+ assay (method 2) is on file for cyclo(YR[Cit]CRG[dP]RRWCY[Cit]Q[dP]P) (disulfide 4-11; SMILES N=C(N)NCCC[C@@H]1NC(=O)[C@@H]2CSSC[C@H](NC(=O)[C@H](Cc3c[nH]c4ccccc34)NC(=O)[C@H](CCCNC(=N)N)NC(=O)[C@H](CCCNC(=N)N)NC(=O)[C@H]3CCCN3C(=O)CNC1=O)C(=O)N[C@@H](Cc1ccc(O)cc1)C(=O)N[C@@H](CCCNC(N)=O)C(=O)N[C@@H](CCC(N)=O)C(=O)N1CCC[C@@H]1C(=O)N1CCC[C@H]1C(=O)N[C@@H](Cc1ccc(O)cc1)C(=O)N[C@@H](CCCNC(=N)N)C(=O)N[C@@H](CCCNC(N)=O)C(=O)N2) [Example 121] ?
6.5
